target: T1, human EphA4 (Homo sapiens, UniProt P54764); assay: Affinity of humanized antibodies by SPR (Biacore T200); assay type: binding; conditions: human EphA4 extracellular region-SEAP-His; 1:1 binding model
T1 construct: made in house; not restated for the human SEAP-His protein
T1 sequence (P54764 20-547): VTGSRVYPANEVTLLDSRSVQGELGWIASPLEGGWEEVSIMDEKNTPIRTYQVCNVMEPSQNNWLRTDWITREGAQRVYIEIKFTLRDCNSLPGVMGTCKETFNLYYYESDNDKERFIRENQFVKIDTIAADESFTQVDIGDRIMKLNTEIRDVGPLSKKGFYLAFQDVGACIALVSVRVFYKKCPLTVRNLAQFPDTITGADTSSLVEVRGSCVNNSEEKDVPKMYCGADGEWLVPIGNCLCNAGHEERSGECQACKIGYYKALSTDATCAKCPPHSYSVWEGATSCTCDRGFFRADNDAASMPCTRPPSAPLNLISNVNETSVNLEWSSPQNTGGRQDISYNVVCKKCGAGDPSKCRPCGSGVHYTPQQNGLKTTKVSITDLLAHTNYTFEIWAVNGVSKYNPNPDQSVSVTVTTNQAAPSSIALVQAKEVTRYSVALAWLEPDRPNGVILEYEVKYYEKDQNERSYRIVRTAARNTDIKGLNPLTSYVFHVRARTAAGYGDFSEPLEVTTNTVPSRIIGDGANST
ka for assorted molecules
Measured Metric: ka (M⁻¹ s⁻¹)

Molecule: 89 (antibody, V domains shown, constant regions without entry; synthetic humanized antibody light chain variable region sequence; synthetic humanized antibody heavy chain variable region sequence) VL: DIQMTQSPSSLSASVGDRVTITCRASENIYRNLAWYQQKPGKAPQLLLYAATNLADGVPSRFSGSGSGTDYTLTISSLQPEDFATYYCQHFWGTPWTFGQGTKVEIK VH: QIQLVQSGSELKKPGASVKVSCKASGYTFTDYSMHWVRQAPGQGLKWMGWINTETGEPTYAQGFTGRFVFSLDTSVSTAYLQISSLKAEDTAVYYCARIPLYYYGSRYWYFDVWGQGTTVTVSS
Measured Metric: ka
Endpoint Result: 310000
//
Molecule: 77 (antibody, V domains shown, synthetic humanized antibody heavy chain variable region sequence; synthetic humanized antibody light chain variable region sequence) VH: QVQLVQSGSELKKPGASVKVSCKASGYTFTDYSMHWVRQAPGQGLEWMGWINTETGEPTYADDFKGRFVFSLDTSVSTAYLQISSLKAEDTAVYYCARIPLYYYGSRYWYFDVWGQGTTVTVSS VL: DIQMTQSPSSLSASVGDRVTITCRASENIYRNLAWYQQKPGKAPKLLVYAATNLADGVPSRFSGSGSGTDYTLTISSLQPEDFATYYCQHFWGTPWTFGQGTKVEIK
Measured Metric: ka
Endpoint Result: 410000
//
Molecule: 143 (antibody, V domains shown, synthetic humanized antibody heavy chain variable region sequence; synthetic humanized antibody light chain variable region sequence) VH: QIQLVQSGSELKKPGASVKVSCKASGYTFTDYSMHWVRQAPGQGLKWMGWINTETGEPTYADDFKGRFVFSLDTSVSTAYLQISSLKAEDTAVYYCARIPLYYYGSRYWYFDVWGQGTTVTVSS VL: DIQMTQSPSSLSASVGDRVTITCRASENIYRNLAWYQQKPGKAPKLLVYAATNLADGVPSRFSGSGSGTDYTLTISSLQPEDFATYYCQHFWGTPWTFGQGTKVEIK
Measured Metric: ka
Endpoint Result: 350000
//
Molecule: 84 (antibody, V domains shown, constant regions without entry; synthetic humanized antibody light chain variable region sequence; synthetic humanized antibody heavy chain variable region sequence) VL: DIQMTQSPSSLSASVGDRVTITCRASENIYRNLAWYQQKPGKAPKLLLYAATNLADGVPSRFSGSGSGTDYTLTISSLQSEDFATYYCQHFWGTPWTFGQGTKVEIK VH: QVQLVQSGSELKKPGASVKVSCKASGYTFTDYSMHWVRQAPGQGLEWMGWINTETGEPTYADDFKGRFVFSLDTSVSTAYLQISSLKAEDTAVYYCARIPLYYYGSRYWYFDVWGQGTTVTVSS
Measured Metric: ka
Endpoint Result: 350000
